B1: library; a variant is named by its letters at X, in order (parent)
chain: MNIQIGELAKRTACPVVTIRFYEQEGLLPPPGRSRGNFRLYGEEHVERLQFIRHCRSLDMPLSXVRTLLSYRKRPDQDCGEVXMLLDEHIRQVESRIGALLELXHHXVELREACSGARPAQSCGILQXLSXCVCXTRGTTAHXSD

Variants of: B1
Experiment: sfGFP reporter fluorescence (15 h) (µM FITC); higher = stronger transcriptional activation
Settings: library round: Round 3; ligand: 30 µM Zn
assay_readout: sfGFP reporter fluorescence

sequence_change	assay_readout	reported
DTKLGDAL Q121A	sfGFP reporter fluorescence	0.329
LNKCGAAP H54C C55P H106L	sfGFP reporter fluorescence	0.0477
LILCGAAC V16C H54C C55P H106A	sfGFP reporter fluorescence	0.0492
DNVLGDDY H54A H142C	sfGFP reporter fluorescence	0.136
DNKCMDAK G124A	sfGFP reporter fluorescence	2.65
KNVEGDDP M60L P61N	sfGFP reporter fluorescence	0.047
DTKLGDPR V108L	sfGFP reporter fluorescence	0.142
DNKCGADY M60L	sfGFP reporter fluorescence	2.58
ENKCMDAK	sfGFP reporter fluorescence	2.44
TIVLGDDR H106A	sfGFP reporter fluorescence	0.0673
KFVLGDDP P61T H106A	sfGFP reporter fluorescence	0.0488
KFVLGDDP I90A H106A	sfGFP reporter fluorescence	0.0549
KNVCGDDP M60L E81A	sfGFP reporter fluorescence	2.76
DNKLGDDP	sfGFP reporter fluorescence	0.416
DTKCIDAP I125L	sfGFP reporter fluorescence	0.614
DSKLGMAP V108L	sfGFP reporter fluorescence	0.354
